measured on: GAL4 DBD-CfEcR(DEF)/VP16AD-MmRXRE (Choristoneura fumiferana, UniProt O77240)
method notes: 13B3 Assay (CHO stable cell line, luciferase reporter)
condition notes: maximum fold induction at any concentration relative to that of GS-E ligand; CHO 13B3 cells
quantity kind: 13B3 assay Rel Max FI
// response body must contain only the number

# `COc1cccc(C(=O)N(NC(=O)c2ccc3c(c2C)OCCO3)C(C)(C)C)c1` with GAL4 DBD-CfEcR(DEF)/VP16AD-MmRXRE (Choristoneura fumiferana, UniProt O77240): 13B3 assay Rel Max FI is 0.825

# `COc1ccc(C(=O)NN(C(=O)c2ccc(F)cc2Cl)C(C)(C)C)cc1` with GAL4 DBD-CfEcR(DEF)/VP16AD-MmRXRE (Choristoneura fumiferana, UniProt O77240): 13B3 assay Rel Max FI is 0.569

# `COc1cccc(C(=O)NN(C(=O)c2cc(C)cc(C)c2)C(C)(C)C)c1CN(C)C` with GAL4 DBD-CfEcR(DEF)/VP16AD-MmRXRE (Choristoneura fumiferana, UniProt O77240): 13B3 assay Rel Max FI is 0

# `COc1cccc(C(=O)NN(C(=O)c2cc(Cl)c(F)c(Cl)c2)C(C)(C)C)c1C` with GAL4 DBD-CfEcR(DEF)/VP16AD-MmRXRE (Choristoneura fumiferana, UniProt O77240): 13B3 assay Rel Max FI is 0.915

====

Hi there, I'd appreciate the recorded Fold Induction, Z3 Assay, 3.3 uM for every entry that follows.
measured on: Bombyx mori EcR (VP16 fusion, CVBE switch construct) (Bombyx mori)
method notes: Z3 Assay (HEK-293 cells with CVBE and 6XEcRE LacZ, β-galactosidase reporter)
condition notes: 3.3 uM ligand; ligand treated / DMSO treated cells; average of two wells
// response body must contain only the number

Fold Induction, Z3 Assay, 3.3 uM for `CCc1c(OC)cccc1C(=O)NN(C(=O)c1cc(C)ccc1[N+](=O)[O-])C(C)(C)C` is 334

Fold Induction, Z3 Assay, 3.3 uM for `CCc1c(OC)cccc1C(=O)NN(C(=O)c1cc(C)cc(C)c1)C(C)(C)COC(C)=O` is 199

Fold Induction, Z3 Assay, 3.3 uM for `COc1ccc(C)cc1C(=O)N(NC(=O)c1cccc(OC)c1C)C(C)(C)C` is 921

Fold Induction, Z3 Assay, 3.3 uM for `Cc1cc(C(=O)N(NC(=O)c2cccc(Cl)c2C)C(C)(C)C)ccc1Br` is 6

Fold Induction, Z3 Assay, 3.3 uM for CCC(N(NC(=O)c1cccc(C)c1C)C(=O)c1cccc(C)c1)C(C)(C)C (centres unmarked) is 189

Fold Induction, Z3 Assay, 3.3 uM for `COc1ccccc1C(=O)N(NC(=O)c1ccc2c(c1C)CCCO2)C(C)(C)C` is 88

Fold Induction, Z3 Assay, 3.3 uM for CCCC(N(NC(=O)c1cccc(OC)c1C)C(=O)c1cc(OC)c(C)c(OC)c1)C(C)(C)C (centres unmarked) is 895

Fold Induction, Z3 Assay, 3.3 uM for `CCc1c(OC)cccc1C(=O)NN(C(=O)c1cc(F)cc(C(F)(F)F)c1)C(C)(C)C` is 561

====

measured on: Bombyx mori EcR (VP16 fusion, CVBE switch construct) (Bombyx mori, UniProt P49881)
Sequence (P49881 86-606): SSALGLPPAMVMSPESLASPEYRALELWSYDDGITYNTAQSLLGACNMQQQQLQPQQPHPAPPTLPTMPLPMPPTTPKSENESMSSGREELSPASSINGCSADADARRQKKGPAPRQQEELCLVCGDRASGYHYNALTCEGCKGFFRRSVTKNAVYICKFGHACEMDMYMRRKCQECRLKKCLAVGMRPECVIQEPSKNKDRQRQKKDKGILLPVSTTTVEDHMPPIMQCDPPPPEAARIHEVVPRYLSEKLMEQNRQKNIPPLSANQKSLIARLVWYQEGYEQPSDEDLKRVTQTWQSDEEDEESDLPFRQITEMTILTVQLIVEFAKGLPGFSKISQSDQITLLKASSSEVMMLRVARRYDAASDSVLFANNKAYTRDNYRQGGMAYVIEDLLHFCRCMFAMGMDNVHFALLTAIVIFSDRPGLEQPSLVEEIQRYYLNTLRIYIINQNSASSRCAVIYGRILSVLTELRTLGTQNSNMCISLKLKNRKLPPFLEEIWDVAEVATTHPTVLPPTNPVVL
Sequence (P19793 1-462 partner): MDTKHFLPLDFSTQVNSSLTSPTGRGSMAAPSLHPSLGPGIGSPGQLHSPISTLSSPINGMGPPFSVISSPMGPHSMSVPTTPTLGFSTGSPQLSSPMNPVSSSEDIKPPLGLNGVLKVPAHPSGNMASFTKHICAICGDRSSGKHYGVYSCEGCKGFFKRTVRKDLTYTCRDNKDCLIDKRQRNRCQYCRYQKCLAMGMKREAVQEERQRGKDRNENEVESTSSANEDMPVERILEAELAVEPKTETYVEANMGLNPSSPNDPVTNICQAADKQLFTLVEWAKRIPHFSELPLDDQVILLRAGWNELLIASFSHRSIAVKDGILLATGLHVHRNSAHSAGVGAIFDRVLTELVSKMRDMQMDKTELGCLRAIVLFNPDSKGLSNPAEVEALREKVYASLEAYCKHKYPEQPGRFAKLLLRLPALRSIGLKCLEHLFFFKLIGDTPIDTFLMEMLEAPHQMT
method notes: Z3 Assay (HEK-293 cells with CVBE and 6XEcRE LacZ, β-galactosidase reporter)
condition notes: 3.3 uM ligand; ligand treated / DMSO treated cells; average of two wells
Param label: returns yes when Fold Induction, Z3 Assay, 3.3 uM < 400, returns no otherwise, including exact equality.

Q: Is it true that Fold Induction, Z3 Assay, 3.3 uM reported for CCc1ccc(C(=O)NN(C(=O)c2cc(C)cc(C)c2)C(C)C(C)(C)C)cc1 (centres unmarked) is less than 400?
Result: yes

Q: Is it true that Fold Induction, Z3 Assay, 3.3 uM reported for `CCc1c(C(=O)NN(C(=O)c2cc(Cl)nc(Cl)c2)C(C)(C)C)ccc2c1OCCO2` is less than 400?
Result: no

Q: Is it true that Fold Induction, Z3 Assay, 3.3 uM reported for `Cc1c(C(=O)NN(C(=O)c2cc(F)cc(C(F)(F)F)c2)C(C)(C)C)ccc2c1OCCO2` is less than 400?
Result: no

Q: Is it true that Fold Induction, Z3 Assay, 3.3 uM reported for `Cc1c(C(=O)NN(C(=O)c2cc(F)c(F)c(F)c2F)C(C)(C)C)ccc2c1CCCO2` is less than 400?
Result: yes

Q: Is it true that Fold Induction, Z3 Assay, 3.3 uM reported for `CCc1ccc(C(=O)NN(C(=O)c2ccc(OC)nc2OC)C(C)(C)C)c(F)c1` is less than 400?
Result: no

Q: Is it true that Fold Induction, Z3 Assay, 3.3 uM reported for `CCc1ccc(C(=O)NN(C(=O)c2cc(Cl)nc(Cl)c2)C(C)(C)C)c(F)c1` is less than 400?
Result: yes

Q: Is it true that Fold Induction, Z3 Assay, 3.3 uM reported for `Cc1c(C(=O)NN(C(=O)c2ccc(F)cc2)C(C)(C)C)ccc2c1CCCO2` is less than 400?
Result: yes

====

measured on: GAL4 DBD (1-147)-CfEcR(DEF)/VP16AD-βRXREF-LmUSPEF (Choristoneura fumiferana)
method notes: cell-based
condition notes: 33 uM ligand; RLU ligand treated / RLU DMSO treated cells; average of two wells
Hi there, I'd appreciate the recorded Fold Induction, 27-63 Assay, 33 uM for every entry that follows.
// response body must contain only the number

Fold Induction, 27-63 Assay, 33 uM for Cc1cc(C)cc(C(=O)N(NC(=O)c2ccc(CC#N)cc2)C(C)(C)C)c1 [RG-100875] is 1592

Fold Induction, 27-63 Assay, 33 uM for COc1ccc(C(=O)NN(C(=O)c2ccc(F)cc2Cl)C(C)(C)C)cc1 [RG-101057] is 1008

Fold Induction, 27-63 Assay, 33 uM for CCc1c(C(=O)NN(C(=O)c2cc(F)ccc2F)C(C)(C)C)ccc2c1OCCO2 [RG-115508] is 969

Fold Induction, 27-63 Assay, 33 uM for CCc1c(OC)cccc1C(=O)NN(C(=O)c1cc(C)ccc1[N+](=O)[O-])C(C)(C)C [RG-115162] is 1464

====

Hi there, I'd appreciate the recorded log10 EC50 for every entry that follows.
measured on: Bombyx mori EcR (VP16 fusion, CVBE switch construct) (Bombyx mori)
method notes: Z3 Assay (HEK-293 cells with CVBE and 6XEcRE LacZ, β-galactosidase reporter)
condition notes: read-out: Z3 assay EC50; HEK-293 Z3 cells, β-galactosidase reporter; average of two wells
Heads up, the numbers here are log10 of EC50 in nM units.

log10 EC50 for `CCc1c(OC)cccc1C(=O)NN(C(=O)c1cc(F)c(Cl)cc1Cl)C(C)(C)C` is 2.44

log10 EC50 for `CCc1ccc(C(=O)NN(C(=O)c2cc(OC)c(C)c(OC)c2)C(C)(C)C)c(F)c1` is 2.59

log10 EC50 for `Cc1c(C(=O)NN(C(=O)c2ccc(F)c(F)c2)C(C)(C)C)ccc2c1CCCO2` is 1.96

log10 EC50 for `Cc1cc(C)cc(C(=O)N(NC(=O)c2ccc3c(c2)OC(F)(F)O3)C(C)(C)C)c1` is 2.84

log10 EC50 for `Cc1ccc(C(=O)NN(C(=O)c2cc(C)cc(C)c2)C(C)(C)C)cc1` is 2.51

log10 EC50 for `Cc1cc(C)cc(C(=O)N(NC(=O)c2ccc3c(c2Cl)COCO3)C(C)(C)C)c1` is 2.11

log10 EC50 for `COc1cc(C(=O)N(NC(=O)c2ccc3c(c2C)OCCO3)C(C)(C)C)c([N+](=O)[O-])c(OC)c1C` is 3.14

log10 EC50 for `C=Cc1c(OC)cccc1C(=O)NN(C(=O)c1cc(C)cc(C)c1)C(C)(C)C` is 2.71
